Target: Carbonic anhydrase 6 (Homo sapiens)
Sequence (P23280 whole entry): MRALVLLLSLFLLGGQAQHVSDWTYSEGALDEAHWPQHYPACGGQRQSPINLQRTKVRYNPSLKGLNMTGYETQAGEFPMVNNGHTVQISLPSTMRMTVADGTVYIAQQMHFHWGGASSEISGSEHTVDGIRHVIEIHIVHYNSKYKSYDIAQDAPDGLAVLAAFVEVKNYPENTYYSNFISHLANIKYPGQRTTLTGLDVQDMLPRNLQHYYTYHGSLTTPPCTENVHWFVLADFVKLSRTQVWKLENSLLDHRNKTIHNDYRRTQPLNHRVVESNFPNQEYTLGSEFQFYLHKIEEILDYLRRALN
READOUT_LABEL: pIC50
// pIC50: -log10(molar conc.)

COc1cc(O)c(/C=C\C(=O)O)cc1[C@@H](O)CC(C)C yielded pIC50 of 4.45

* * *

Target: Carbonic anhydrase 5A, mitochondrial (Homo sapiens)
Sequence (P35218 whole entry): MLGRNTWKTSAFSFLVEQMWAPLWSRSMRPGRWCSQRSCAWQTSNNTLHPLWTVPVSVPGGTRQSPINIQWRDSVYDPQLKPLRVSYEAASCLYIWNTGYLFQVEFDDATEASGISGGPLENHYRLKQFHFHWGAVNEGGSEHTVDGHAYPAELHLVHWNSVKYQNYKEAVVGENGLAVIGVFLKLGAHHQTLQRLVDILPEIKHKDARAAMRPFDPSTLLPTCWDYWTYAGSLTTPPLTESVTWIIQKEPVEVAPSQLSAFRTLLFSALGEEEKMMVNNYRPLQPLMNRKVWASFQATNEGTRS
READOUT_LABEL: pIC50
Interpret pIC50 as the negative base-10 log of the concentration measured in mol/L.

Sure, the documented pIC50 for COc1cc(O)c(/C=C\C(=O)O)cc1[C@@H](O)CC(C)C is 5.02

* * *

Target sequence: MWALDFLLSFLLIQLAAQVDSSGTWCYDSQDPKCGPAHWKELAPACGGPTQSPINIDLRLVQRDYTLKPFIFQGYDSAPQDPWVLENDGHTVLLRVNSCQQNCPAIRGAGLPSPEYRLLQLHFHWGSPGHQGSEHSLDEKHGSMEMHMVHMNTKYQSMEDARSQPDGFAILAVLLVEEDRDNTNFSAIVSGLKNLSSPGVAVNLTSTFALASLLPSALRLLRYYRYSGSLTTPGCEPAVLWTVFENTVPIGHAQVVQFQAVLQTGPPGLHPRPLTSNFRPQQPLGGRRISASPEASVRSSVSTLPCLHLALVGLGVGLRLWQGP
READOUT_LABEL: IC50 (µM)
Reply with just the number (in µM).

So for COc1cc(O)c(/C=C\C(=O)O)cc1[C@@H](O)CC(C)C , the logged IC50 turned out to be 93.1

* * *

Target: Carbonic anhydrase 5B, mitochondrial (Homo sapiens)
Sequence (Q9Y2D0 whole entry): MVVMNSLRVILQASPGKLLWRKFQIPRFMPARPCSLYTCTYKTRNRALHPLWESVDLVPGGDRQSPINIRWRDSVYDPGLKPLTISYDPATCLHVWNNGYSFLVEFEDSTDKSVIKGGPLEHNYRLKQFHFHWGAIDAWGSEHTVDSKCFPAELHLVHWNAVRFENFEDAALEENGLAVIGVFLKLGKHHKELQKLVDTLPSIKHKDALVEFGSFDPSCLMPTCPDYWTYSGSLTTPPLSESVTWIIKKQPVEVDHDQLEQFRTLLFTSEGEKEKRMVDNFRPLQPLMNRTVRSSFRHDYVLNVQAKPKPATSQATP
READOUT_LABEL: IC50 (µM)
Note: unit µM is implicit; provide only the numeric part.

Simply: COc1cc(O)c(/C=C\C(=O)O)cc1[C@@H](O)CC(C)C , Carbonic anhydrase 5B, mitochondrial (Homo sapiens), IC50 = 17.7

* * *

Molecular target: Carbonic anhydrase 2 (Homo sapiens)
READOUT_LABEL: IC50

Documented IC50 of C#CCNc1nc(Nc2ccc(S(N)(=O)=O)cc2)ncc1Br : 0.331 µM

* * *

Biological target: Carbonic anhydrase 13 (Mus musculus)
Sequence (Q9D6N1 whole entry): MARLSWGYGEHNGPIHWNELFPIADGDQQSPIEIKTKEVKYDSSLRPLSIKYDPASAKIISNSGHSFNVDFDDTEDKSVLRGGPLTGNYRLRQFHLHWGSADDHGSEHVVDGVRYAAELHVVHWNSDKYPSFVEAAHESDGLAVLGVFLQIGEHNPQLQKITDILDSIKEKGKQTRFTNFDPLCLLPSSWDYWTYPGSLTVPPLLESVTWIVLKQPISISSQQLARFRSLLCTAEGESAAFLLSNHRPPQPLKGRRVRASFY
READOUT_LABEL: pIC50
Please keep in mind that pIC50 is minus log10 of the molar concentration; only the number is needed.

The compound COc1cc(O)c(/C=C\C(=O)O)cc1[C@@H](O)CC(C)C , when measured on Carbonic anhydrase 13 (Mus musculus), yielded pIC50 of 6.10

* * *

Target: Carbonic anhydrase 9 (Homo sapiens, UniProt Q16790)
READOUT_LABEL: Ki (nM)
Kindly provide the numeric value in nM only, without the unit symbol.

Entry under test: Cc1cn(-c2cc(NC(=O)c3ccc(C)c(Nc4nccc(-c5cccnc5)n4)c3)cc(C(F)(F)F)c2)cn1 [NILOTINIB] . Its Ki was 41.9
